Values from patent US4929751A

# Tested on: H524 (small cell lung cancer)
# Protocol notes: growth inhibition of tumor cell line
# Assay type: cell-based
# Test settings: Homo sapiens, NCI-H524; read-out: IC-50 MEAN
# Excerpt: t-Butyl 2,3-dioxo-pent-4-enoate hydrate (A) was contacted with various cell lines as indicated on Table 1 hereinbelow in the column designated as "CELL" or "TUMOR". […] Table 1 reports and illustrates the results obtained by testing t-butyl 2,3-dioxo-pent-4-enoate hydrate. The concentration of this compound found to inhibit the growth of each cell line listed under "CELL" by 50% is reported under "LOG(IC50)" as the logarithm of the concentration. […]
Measurement type: pIC50
Numbers only, as −log10 of the molar value.

// lookup pIC50 for C=CC(=O)C(O)(O)C(=O)OC(C)(C)C [t-butyl 2,3-dioxo-pent-4-enoate hydrate] 4.39
